# Read-out: ABC Transporter (ABCB11), ABCB11 (gene 8647)
# testName: CLD_ABCB11_24hr: CellzDirect (CLD) Gene Expression Assay for ABC Transporter (ABCB11) at 24 hours (AID 2283674)
Records with an inconclusive call do not appear. Activity calls are given as the source filed them. How the source made its calls: active means hit-call score of the fitted dose curve at least 0.9, where 1 is the maximum; inactive means score below 0.9.
reportedProperty: outcome

compound	dataValue
CCOCN(C(=O)CCl)c1c(C)cccc1CC	inactive
O=C(NC(=O)c1c(F)cccc1F)Nc1ccc(OC(F)(F)C(F)OC(F)(F)F)c(Cl)c1 (stereo not drawn)	inactive
CNC(=O)/C=C(\C)OP(=O)(OC)OC	inactive

* * *

# Read-out: Lipase C (LIPC), LIPC (gene 3990)
# testName: LTEA_HepaRG_LIPC: Life Technologies and Expression Analysis (LTEA) Assay for Lipase C (LIPC) using HepaRG (AID 2283514)
# measurementParameters: mRNA level, 48 h; actives raise or lower the signal
Activity calls are given as the source filed them. How the source made its calls: active means hit-call score of the fitted dose curve at least 0.9, where 1 is the maximum; inactive means score below 0.9.
Labels: active, inactive

molecule	assignedLabel
O=S1OCC2C(CO1)C1(Cl)C(Cl)=C(Cl)C2(Cl)C1(Cl)Cl (stereo not drawn)	active
O=[N+]([O-])c1c(Cl)c(Cl)c(Cl)c(Cl)c1Cl	inactive
O=C(Nc1ccccc1)Nc1cnns1	active
Clc1ccccc1-c1nnc(-c2ccccc2Cl)nn1	inactive
CC[C@H](C)[C@H]1O[C@]2(C=C[C@@H]1C)C[C@@H]1C[C@@H](C/C=C(\C)[C@@H](O[C@H]3C[C@H](OC)[C@@H](O[C@H]4C[C@H](OC)[C@@H](O)[C@H](C)O4)[C@H](C)O3)[C@@H](C)/C=C/C=C3\CO[C@@H]4[C@H](O)C(C)=C[C@@H](C(=O)O1)[C@]34O)O2 (tested in a mixture with another compound)	active
CCCN(CCOc1c(Cl)cc(Cl)cc1Cl)C(=O)n1ccnc1	active
C#CCN1C(=O)COc2cc(F)c(N3C(=O)C4=C(CCCC4)C3=O)cc21	active
COP(=S)(OC)Oc1ccc([N+](=O)[O-])cc1	inactive

* * *

# Read-out: JUN Transcription Factor, JUN (gene 3725)
# testName: LTEA_HepaRG_JUN: Life Technologies and Expression Analysis (LTEA) Assay for JUN Transcription Factor using HepaRG (AID 2283513)
# measurementParameters: mRNA level, 48 h; actives raise or lower the signal
Calls of active or inactive are those of the source. Rule for the calls: active = hit-call score of the fitted dose curve at least 0.9, where 1 is the maximum; inactive = score below 0.9.
Possible outcomes: Y for active, N for inactive

molecule	assignedLabel
CC(C)(C)C(O)/C(=C\c1ccc(Cl)cc1Cl)n1cncn1 (centres undefined)	Y
N#Cc1c(Cl)c(Cl)c(Cl)c(C#N)c1Cl	N
CCN(CC)C(=O)SCc1ccc(Cl)cc1	N
CC(C)N(C(=O)COc1nnc(C(F)(F)F)s1)c1ccc(F)cc1	N
O=C(O)CCCOc1ccc(Cl)cc1Cl	N
CNC(=O)Oc1cccc(N=CN(C)C)c1	N
CNC(=O)CSP(=S)(OC)OC	N
COP(=S)(OC)Oc1ccc([N+](=O)[O-])cc1	N
CNC(=O)/C=C(\C)OP(=O)(OC)OC	N
O=C(O)COc1ccc(Cl)cc1Cl	N
CC(C)(C)C(O)C(Oc1ccc(Cl)cc1)n1cncn1 (centres undefined)	N
CC1(C)C(C=C(Cl)Cl)C1C(=O)OC(C#N)c1ccc(F)c(Oc2ccccc2)c1 (centres undefined)	N
O=C(Nc1ccccc1)Nc1cnns1	N
COP(=S)(OC)Oc1ccc(SC)c(C)c1	N

* * *

# testName: CCTE_Shafer_MEA_dev_correlation_coefficient_mean: CCTE's Neural Network Formation Assay for Mean Correlation Coefficient, Shafer Lab (AID 2284093)
The source made the active and inactive calls. The calls were made as follows: active = hit-call score of the fitted dose curve at least 0.9, where 1 is the maximum; inactive = score below 0.9.
Classes used: label 1 for active, label 0 for inactive

compound	assignedLabel
O=C(O)COc1ccc(Cl)cc1Cl	label 0
O=C(O)C(F)(F)C(F)(F)C(F)(F)C(F)(F)C(F)(F)C(F)(F)C(F)(F)F	label 0
ClC1C(Cl)C(Cl)C(Cl)C(Cl)C1Cl (stereo not given)	label 0
CC1(c2ccc(Oc3ccccc3)cc2)OC(=O)N(Nc2ccccc2)C1=O (stereo not given)	label 1
COP(=S)(OC)Oc1ccc([N+](=O)[O-])cc1	label 1

* * *

# Read-out: Cytochrome P450 2B6 (Homo sapiens) (UniProt P20813)
# testName: CLD_CYP2B6_24hr: CellzDirect (CLD) Gene Expression Assay for xenobiotic metabolism (CYP2B6) at 24 hours (AID 2283686)
Inconclusive results are not listed. Active and inactive are the calls of the source. How the source made its calls: active means hit-call score of the fitted dose curve at least 0.9, where 1 is the maximum; inconclusive means response in the unintended direction; inactive means score below 0.9.
Outcomes: active, inactive

molecule	assignedLabel
COC(=O)c1ccccc1CS(=O)(=O)NC(=O)Nc1nc(OC)cc(OC)n1	inactive
ClC1C(Cl)C(Cl)C(Cl)C(Cl)C1Cl (stereo not drawn)	active
CCC(C)(NC(=O)c1cc(Cl)c(C)c(Cl)c1)C(=O)CCl (stereo not drawn)	active
COC(=O)c1ccccc1S(=O)(=O)NC(=O)N(C)c1nc(C)nc(OC)n1	inactive
CCOC1Oc2ccc(OS(C)(=O)=O)cc2C1(C)C (stereo not drawn)	active
CNC(=O)Oc1ccccc1OC(C)C	active
CCC(C)(C)C(=O)OC1=C(c2ccc(Cl)cc2Cl)C(=O)OC12CCCCC2	inactive
CC[C@H](C)[C@H]1O[C@]2(C=C[C@@H]1C)C[C@@H]1C[C@@H](C/C=C(\C)[C@@H](O[C@H]3C[C@H](OC)[C@@H](O[C@H]4C[C@H](OC)[C@@H](O)[C@H](C)O4)[C@H](C)O3)[C@@H](C)/C=C/C=C3\CO[C@@H]4[C@H](O)C(C)=C[C@@H](C(=O)O1)[C@]34O)O2 (tested in a mixture with another compound)	active

* * *

# targetOfAssay: Cellular tumor antigen p53 (Homo sapiens)
# testName: TOX21_p53_BLA_p3_ratio: Tox21 HCT-116 p53 Agonism Beta-lactamase Assay, Ratio, Phase 3 (AID 2283596)
Records with an inconclusive call do not appear. The source made the active and inactive calls. Rule for the calls: active = hit-call score of the fitted dose curve at least 0.9, where 1 is the maximum; inconclusive = response in the unintended direction; inactive = score below 0.9.
Outcomes: 1 (yes) (active), 0 (no) (inactive)

compound	targetOfAssay	assignedLabel
CCC(C)(C)C(=O)OC1=C(c2ccc(Cl)cc2Cl)C(=O)OC12CCCCC2	Cellular tumor antigen p53 (Homo sapiens)	1 (yes)
ClC1C(Cl)C(Cl)C(Cl)C(Cl)C1Cl (stereo not given)	Cellular tumor antigen p53 (Homo sapiens)	0 (no)
CN1CSC(=S)N(C)C1	Cellular tumor antigen p53 (Homo sapiens)	0 (no)
O=C(O)C(F)(F)C(F)(F)C(F)(F)C(F)(F)C(F)(F)C(F)(F)C(F)(F)F	Cellular tumor antigen p53 (Homo sapiens)	0 (no)
Oc1ccc(Cl)cc1Cc1ccccc1	Cellular tumor antigen p53 (Homo sapiens)	0 (no)

* * *

# targetOfAssay: rat Acetylcholinesterase (AChE), Ache (gene 83817)
# testName: NVS_ENZ_rAChE: NovaScreen (NVS) Enzymatic Assay for rat Acetylcholinesterase (AChE) (AID 2283233)
Inconclusive results are not listed. Activity calls are given as the source filed them. The calls were made as follows: active = hit-call score of the fitted dose curve at least 0.9, where 1 is the maximum; inconclusive = response in the unintended direction; inactive = score below 0.9.
Possible outcomes: yes (1) = active, no (0) = inactive

smilesString	assignedLabel
CC(C)N(C(=O)COc1nnc(C(F)(F)F)s1)c1ccc(F)cc1	yes (1)
CNC(=O)Oc1cccc(N=CN(C)C)c1	yes (1)
COP(=S)(OC)Oc1ccc([N+](=O)[O-])cc1	no (0)
O=C(Nc1ccccc1)Nc1cnns1	no (0)

* * *

# targetOfAssay: Ratio of Nucleoli Translocation and Cytoplasm, AR (gene 367) (UniProt P10275)
# Sequence (P10275 whole entry, looked up): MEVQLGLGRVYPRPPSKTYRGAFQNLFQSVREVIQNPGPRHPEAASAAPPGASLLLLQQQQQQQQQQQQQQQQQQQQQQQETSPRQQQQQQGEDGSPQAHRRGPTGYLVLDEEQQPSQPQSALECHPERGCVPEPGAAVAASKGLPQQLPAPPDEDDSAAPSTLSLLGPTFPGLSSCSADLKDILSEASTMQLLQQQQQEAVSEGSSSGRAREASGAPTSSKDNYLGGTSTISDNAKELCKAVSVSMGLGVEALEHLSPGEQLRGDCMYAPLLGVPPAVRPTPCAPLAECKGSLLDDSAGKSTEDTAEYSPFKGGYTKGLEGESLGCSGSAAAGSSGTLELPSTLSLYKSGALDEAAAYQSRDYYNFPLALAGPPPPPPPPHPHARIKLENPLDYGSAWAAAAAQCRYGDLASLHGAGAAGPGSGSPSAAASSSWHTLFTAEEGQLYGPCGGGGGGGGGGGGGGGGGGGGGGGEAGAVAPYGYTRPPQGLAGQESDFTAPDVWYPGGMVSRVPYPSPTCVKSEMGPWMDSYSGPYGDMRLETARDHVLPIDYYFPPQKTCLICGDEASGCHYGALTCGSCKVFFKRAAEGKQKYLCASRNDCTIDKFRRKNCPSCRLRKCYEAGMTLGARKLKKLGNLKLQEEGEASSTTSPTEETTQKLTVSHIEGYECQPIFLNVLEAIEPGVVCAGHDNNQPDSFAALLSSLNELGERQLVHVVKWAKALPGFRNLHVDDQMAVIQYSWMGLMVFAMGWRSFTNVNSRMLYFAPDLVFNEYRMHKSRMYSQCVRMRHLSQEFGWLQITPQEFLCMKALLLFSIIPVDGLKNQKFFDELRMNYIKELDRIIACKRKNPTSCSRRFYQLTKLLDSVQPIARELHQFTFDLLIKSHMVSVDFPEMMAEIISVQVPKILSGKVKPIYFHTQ
# testName: UPITT_HCI_U2OS_AR_TIF2_Nucleoli_Cytoplasm_Ratio_Antagonist: University of Pittsburgh U2OS Androgen Receptor-Transcriptional Intermediary Factor 2 (AR-TIF2) Antagonism High Content Imaging Assay for Ratio of Nucleoli Translocation and Cytoplasm (AID 2283999);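 further: antagonists lower the DHT-driven ratio of nucleolar to cytoplasmic red signal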
Results filed as inconclusive are left out. The source made the active and inactive calls. Rule for the calls: active = hit-call score of the fitted dose curve at least 0.9, where 1 is the maximum; inconclusive = response in the unintended direction; inactive = score below 0.9.

molecule	targetOfAssay	outcome
CCC(C)(C)C(=O)OC1=C(c2ccc(Cl)cc2Cl)C(=O)OC12CCCCC2	Ratio of Nucleoli Translocation and Cytoplasm, AR (gene 367) (UniProt P10275)	inactive
C#CCN1C(=O)COc2cc(F)c(N3C(=O)C4=C(CCCC4)C3=O)cc21	Ratio of Nucleoli Translocation and Cytoplasm, AR (gene 367) (UniProt P10275)	inactive
C[C@H]1[C@H](c2ccc(Cl)cc2)SC(=O)N1C(=O)NC1CCCCC1	Ratio of Nucleoli Translocation and Cytoplasm, AR (gene 367) (UniProt P10275)	inactive
CCCN(CCC)c1c([N+](=O)[O-])cc(C(F)(F)F)cc1[N+](=O)[O-]	Ratio of Nucleoli Translocation and Cytoplasm, AR (gene 367) (UniProt P10275)	inactive
O=S1OCC2C(CO1)C1(Cl)C(Cl)=C(Cl)C2(Cl)C1(Cl)Cl (stereo not given)	Ratio of Nucleoli Translocation and Cytoplasm, AR (gene 367) (UniProt P10275)	inactive

* * *

# Read-out: alkyl and aryl transferase (GSTA2), GSTA2 (gene 2939)
# testName: CLD_GSTA2_48hr: CellzDirect (CLD) Gene Expression Assay for alkyl and aryl transferase (GSTA2) at 48 hours (AID 2283708);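 further: active means mRNA induction above DMSO vehicle baseline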
Results filed as inconclusive are left out. Active and inactive are the calls of the source. The calls were made as follows: active = hit-call score of the fitted dose curve at least 0.9, where 1 is the maximum; inconclusive = response in the unintended direction; inactive = score below 0.9.
Labels: active, inactive

compound	assignedLabel
CC[C@H](C)[C@H]1O[C@]2(C=C[C@@H]1C)C[C@@H]1C[C@@H](C/C=C(\C)[C@@H](O[C@H]3C[C@H](OC)[C@@H](O[C@H]4C[C@H](OC)[C@@H](O)[C@H](C)O4)[C@H](C)O3)[C@@H](C)/C=C/C=C3\CO[C@@H]4[C@H](O)C(C)=C[C@@H](C(=O)O1)[C@]34O)O2 (tested in a mixture with another compound)	inactive
N#Cc1c(Cl)c(Cl)c(Cl)c(C#N)c1Cl	inactive
N#CN	inactive
COc1cc(OC)nc(NC(=O)NS(=O)(=O)c2cc(NC=O)ccc2C(=O)N(C)C)n1	inactive
CCS(=O)(=O)c1cccnc1S(=O)(=O)NC(=O)Nc1nc(OC)cc(OC)n1	inactive
CNC(=O)Oc1cccc(N=CN(C)C)c1	inactive
CCOCN(C(=O)CCl)c1c(C)cccc1CC	active
O=C(O)C(F)(F)C(F)(F)C(F)(F)C(F)(F)C(F)(F)C(F)(F)C(F)(F)F	inactive
O=C(Nc1ccccc1)Nc1cnns1	inactive
CC(C)OC(=O)Nc1cccc(Cl)c1	inactive
CC(C)(C)C(O)C(Oc1ccc(Cl)cc1)n1cncn1 (configuration not stated)	inactive
C[C@H]1[C@H](c2ccc(Cl)cc2)SC(=O)N1C(=O)NC1CCCCC1	active
Oc1ccc(Cl)cc1Cc1ccccc1	inactive
CCN(CC)C(=O)SCc1ccc(Cl)cc1	inactive
CCOC1Oc2ccc(OS(C)(=O)=O)cc2C1(C)C (configuration not stated)	inactive
COC(=O)c1ccccc1S(=O)(=O)NC(=O)Nc1nc(C)nc(OC)n1	inactive
CCC(C)(NC(=O)c1cc(Cl)c(C)c(Cl)c1)C(=O)CCl (configuration not stated)	inactive
ClC1C(Cl)C(Cl)C(Cl)C(Cl)C1Cl (configuration not stated)	inactive
C#CCN1C(=O)COc2cc(F)c(N3C(=O)C4=C(CCCC4)C3=O)cc21	inactive
COC(=O)c1ccccc1S(=O)(=O)NC(=O)N(C)c1nc(C)nc(OC)n1	inactive
CCCN(CCOc1c(Cl)cc(Cl)cc1Cl)C(=O)n1ccnc1	inactive
CCC(C)Nc1c([N+](=O)[O-])cc(C(C)(C)C)cc1[N+](=O)[O-] (configuration not stated)	active
